molecular target: UniProtKB P07948; assay: Lyn kinase activation, pre-incubation then standard radiometric assay; conditions: 30 minutes pre-incubation on ice; 10 μM ATP
Sequence (P07948 whole entry): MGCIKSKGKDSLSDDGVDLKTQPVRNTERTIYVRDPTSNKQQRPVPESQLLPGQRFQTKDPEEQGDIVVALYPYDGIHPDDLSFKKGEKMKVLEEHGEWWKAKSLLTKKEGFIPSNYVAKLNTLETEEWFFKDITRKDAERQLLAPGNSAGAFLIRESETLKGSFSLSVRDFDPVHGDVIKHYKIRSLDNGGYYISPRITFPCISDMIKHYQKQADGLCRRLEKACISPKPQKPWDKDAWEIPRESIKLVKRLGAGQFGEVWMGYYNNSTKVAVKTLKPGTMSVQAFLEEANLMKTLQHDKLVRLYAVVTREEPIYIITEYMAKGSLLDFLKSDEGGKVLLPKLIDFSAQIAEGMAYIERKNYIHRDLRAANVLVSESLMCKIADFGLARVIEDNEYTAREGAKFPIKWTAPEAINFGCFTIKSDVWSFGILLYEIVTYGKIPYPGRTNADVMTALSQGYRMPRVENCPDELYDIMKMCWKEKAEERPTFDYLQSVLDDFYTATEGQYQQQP
PARAMETER MEASURED: EC50 (µM)
Could you give me the number in µM? Just the number is fine.

Look up EC50 with UniProtKB P07948 for this compound: "Cc1cccc(Oc2cnc(=O)[nH]c2)c1"
0.65

Provenance of the data: patent US20100152215A1
